This collection of values is drawn from patent US8748460B2.

Test system: Chikungunya (Togaviridae) 181/25 strain
Assay type: cell-based
Details: read-out: EC50, Chikungunya virus inhibition
REPORTED_ENDPOINT: pEC50
In plain terms, pEC50 is the concentration in mol/L turned into minus its base-10 logarithm.

Entry under test: `[N-]=[N+]=Nc1ccc(NCCCCCCN2C[C@H](O)[C@@H](O)[C@H](O)[C@H]2CO)c([N+](=O)[O-])c1` . Its pEC50 was 4.66

Entry under test: CCCCCCCCCN1C[C@H](O)[C@@H](O)[C@H](O)[C@H]1CO [UV-2, N-Nonyl dexoynojirimycin] . Its pEC50 was 4.25
